The reader will find reported pD2 values listed item by item below.
species: Cavia porcellus; assay: Compound was evaluated for its agonist activity on guinea-pig ileum, value expressed as the negative logarithm of the ED50 value; format: functional
REPORTED PROPERTY: pD2

>>> readout_value("CCCCC/C=C\\C\\C=C/C=C/C=C/[C@@H](SC[C@H](N)C(=O)NCC(=O)O)[C@@H](O)CCCC(=O)O [LEUKOTRIENE D4]")
8.4
>>> readout_value("CCCCC/C=C\\C\\C=C/C=C/C=C/[C@@H](SCC(=O)O)[C@@H](O)CCCC(=O)O")
8.5
>>> readout_value("CCCCC/C=C\\C\\C=C/C=C/C=C/[C@@H](Sc1cccc(C(=O)O)c1)[C@@H](O)CCCC(=O)O")
8.2
>>> readout_value("CCCCC/C=C\\C\\C=C/C=C/C=C/[C@@H](Sc1ccccc1C(=O)O)[C@@H](O)CCCC(=O)O")
6.9
